Data provenance: paper PMC9728921

Experimental Target: PRMT4 (Homo sapiens, UniProt Q86X55)
Construct: 2-608
Sequence (Q86X55 2-608): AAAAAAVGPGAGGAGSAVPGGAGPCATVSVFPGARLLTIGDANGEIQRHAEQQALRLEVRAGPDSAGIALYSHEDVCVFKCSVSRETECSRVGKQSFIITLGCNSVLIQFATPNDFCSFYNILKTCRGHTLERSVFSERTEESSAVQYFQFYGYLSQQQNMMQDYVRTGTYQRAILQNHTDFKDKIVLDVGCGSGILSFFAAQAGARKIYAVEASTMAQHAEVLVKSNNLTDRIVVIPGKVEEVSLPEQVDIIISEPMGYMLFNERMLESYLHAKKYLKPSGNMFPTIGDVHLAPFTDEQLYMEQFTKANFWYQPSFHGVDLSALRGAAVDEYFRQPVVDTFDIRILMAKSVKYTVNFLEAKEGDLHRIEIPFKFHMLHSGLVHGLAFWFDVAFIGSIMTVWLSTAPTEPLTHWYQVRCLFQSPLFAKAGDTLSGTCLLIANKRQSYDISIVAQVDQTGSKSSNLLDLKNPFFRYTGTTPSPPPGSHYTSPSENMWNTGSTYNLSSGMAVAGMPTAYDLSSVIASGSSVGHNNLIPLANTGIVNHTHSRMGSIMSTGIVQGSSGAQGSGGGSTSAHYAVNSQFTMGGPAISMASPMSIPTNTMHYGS
Measurement Description: Histone methyltransferase enzymatic assay, PRMT4
Assay type: biochemical
Cond: enzyme conc. 100 nM
pIC50: −log10 of the molar value.
Metric Name: pIC50

Ask: Kindly indicate its recorded pIC50. Item: CCN(CCN(C)C)C(=O)CNCc1cc(C(=O)O)ccn1
Result: < 4.00
